Values from PubChem BioAssay AID330

# Test system: P388 leukemia ip, CD2F1 mice, survival T/C
# assay_text: NCI In Vivo Anticancer Drug Screen. Data for tumor model P388 Leukemia (intraperitoneal) in CD2F1 (CDF1) mice
# settings: endpoint: median survival time; dose: 200.0 mg/kg/injection; schedule: Q01DX001 (ip); vehicle: saline with Tween-80; higher = longer survival
# Description: The antitumor activity of compounds was measured in mice bearing transplantable tumors. Survival or tumor size were measured and the results are expressed as the measurement made in the treated group (T) divided by the measurement made in the vehicle treated control group (C). The tumor model used in this assay is P388 Leukemia (intraperitoneal) in CD2F1 (CDF1) mice
Toxic doses and inconclusive results are not listed.
// reported T/C per item
parameter: T/C

- compound: "O=C(O)c1ccc(OCCOc2ccccc2)cc1"
  reported_measurement: "90 % of control"
- compound: "Cc1cc(CO)cc(CO)c1"
  reported_measurement: "101 % of control"
- compound: "COC(=O)Cn1/c(=N\\N=C(/C)c2ccc(OC)cc2)sc2ccccc21"
  reported_measurement: "117 % of control"
- compound: "O=C(O)c1cc2c3ccccc3ncc2c2ccccc12"
  reported_measurement: "100 % of control"
- compound: "O=C1CCC(Cc2ccc(I)cc2)C(=O)N1 (stereo unspecified)"
  reported_measurement: "100 % of control"
- compound: "COc1ccc(NCC(=O)O)c([N+](=O)[O-])c1"
  reported_measurement: "109 % of control"
- compound: "c1cnn(P2(n3cccn3)=NP(n3cccn3)(n3cccn3)=NP(n3cccn3)(n3cccn3)=NP(n3cccn3)(n3cccn3)=NP(n3cccn3)(n3cccn3)=NP(n3cccn3)(n3cccn3)=N2)c1"
  reported_measurement: "100 % of control"
- compound: "O=C1Cc2[nH]ccc2C(=O)O1"
  reported_measurement: "90 % of control"
- compound: "Nc1nc2nn(Cc3ccc(Cl)c(Cl)c3)c(-c3ccc(Cl)c(Cl)c3)c2c(=O)[nH]1"
  reported_measurement: "97 % of control"
- compound: "CN1C2=NCCN2S(=O)(=O)c2ccccc21"
  reported_measurement: "110 % of control"
- compound: "COc1cc2ccccc2c2c1OP(=O)(O)Oc1c(OC)cc3ccccc3c1-2"
  reported_measurement: "92 % of control"
